Cited source: patent US8288367B2

Assign inhibition at 1 µM to each entry below.
experimental-target: recombinant human 17β-HSD1 (Homo sapiens, UniProt P14061)
Construct: made in house; host or cells: Sf9 insect cells (baculovirus, Bac to Bac Expression System)
Sequence (P14061 1-328): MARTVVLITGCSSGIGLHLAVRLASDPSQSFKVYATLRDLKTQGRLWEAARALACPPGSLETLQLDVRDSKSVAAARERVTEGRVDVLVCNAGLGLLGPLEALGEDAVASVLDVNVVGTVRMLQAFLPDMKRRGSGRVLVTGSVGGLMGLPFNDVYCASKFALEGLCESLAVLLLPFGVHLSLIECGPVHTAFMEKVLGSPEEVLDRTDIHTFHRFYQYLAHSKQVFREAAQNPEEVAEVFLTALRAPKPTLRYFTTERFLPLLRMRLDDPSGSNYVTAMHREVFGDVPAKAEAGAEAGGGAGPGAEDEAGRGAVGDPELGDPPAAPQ
test: Recombinant 17β-HSD1 assay (HPLC, 3H-estrone conversion)
Format: biochemical
run-parameters: 0.5 h; 1 μm compound; 30 nM estrone, 1 mM NADPH, 30 min RT; read-out: Inhibition of rec. 17β-HSD1
Entry rule: numbers only, all in %.

Fill in the blank: the reported inhibition at 1 µM of Cc1cnc(NC(=O)CC[C@@H]2CC(F)(F)[C@@]3(C)CC[C@@H]4c5ccc(B(O)O)cc5CC[C@H]4[C@H]23)s1 is ____.
55

Could you share which inhibition at 1 µM value was measured for C[C@]12CC[C@@H]3c4ccc(B(O)O)cc4CC[C@H]3[C@@H]1[C@@H](CCCC(=O)NC1CCCCC1)CC2=O ?
31

Given the entry COc1cc(Nc2ccc3c(c2)CC[C@H]2[C@@H]4[C@@H](CCCC(=O)N5CCOCC5)CC(=O)[C@@]4(C)CC[C@H]32)cc(C(F)(F)F)c1 , report its measured inhibition at 1 µM.
50

Would you mind telling me what inhibition at 1 µM value was observed for C[C@]12CC[C@@H]3c4ccc(B(O)O)cc4CC[C@H]3[C@@H]1[C@H](CCC(=O)Nc1ccc3c(c1)OCO3)CC2(F)F ?
71.4

Which inhibition at 1 µM reading was recorded for the compound Cc1cnc(NC(=O)CC[C@@H]2CC(=O)[C@@]3(C)CC[C@@H]4c5ccc(B(O)O)cc5CC[C@H]4[C@H]23)s1 ?
90

What value of measured inhibition at 1 µM is listed for C[C@]12CC[C@@H]3c4ccc(B(O)O)cc4CC[C@H]3[C@@H]1[C@@H](CCCC(=O)NCc1cccnc1)CC2(F)F ?
50

----------
experimental-target: recombinant human 17β-HSD1 (Homo sapiens)
Construct: made in house; host or cells: Sf9 insect cells (baculovirus, Bac to Bac Expression System)
test: Recombinant 17β-HSD1 assay (HPLC, 3H-estrone conversion)
Assay type: biochemical
run-parameters: 100 nM compound; 30 nM estrone, 1 mM NADPH, 30 min RT; read-out: Inhibition of rec. 17β-HSD1
measured-quantity: inhibition at 0.1 µM (%)
Return type: number; implicit unit %.

// inhibition at 0.1 µM lookup, key: C[C@]12CC[C@@H]3c4ccc(B(O)O)cc4CC[C@H]3[C@@H]1[C@H](CCC(=O)NCc1cccnc1)CC2(F)F
36

Please give the measured inhibition at 0.1 µM for this compound: C[C@]12CC[C@@H]3c4ccc(B(O)O)cc4CC[C@H]3[C@@H]1[C@H](CCC(=O)NCc1ccc3c(c1)OCO3)CC2=O
47

Entry under review: C[C@]12CC[C@@H]3c4ccc(B(O)O)cc4CC[C@H]3[C@@H]1[C@@H](CCCC(=O)NCc1ccccc1)CC2(F)F . Reported inhibition at 0.1 µM?
41

Name the reported inhibition at 0.1 µM value associated with the compound C[C@]12CC[C@@H]3c4ccc(B(O)O)cc4CC[C@H]3[C@@H]1[C@@H](CCCC(=O)NCc1ccc3c(c1)OCO3)CC2(F)F
40

Looking for the measured inhibition at 0.1 µM of COc1cc(Nc2ccc3c(c2)CC[C@H]2[C@@H]4[C@@H](CCCC(=O)N5CCOCC5)CC(=O)[C@@]4(C)CC[C@H]32)cc(C(F)(F)F)c1 , can you help?
36

Which inhibition at 0.1 µM reading was recorded for the compound C[C@]12CC[C@@H]3c4ccc(B(O)O)cc4CC[C@H]3[C@@H]1[C@H](CCC(=O)N1CCCCC1)CC2=O ?
57

Which inhibition at 0.1 µM value is on record for C[C@]12CC[C@@H]3c4ccc(B(O)O)cc4CC[C@H]3[C@@H]1[C@H](CCC(=O)N1CCOCC1)CC2=O ?
20

Quick check: inhibition at 0.1 µM of C[C@]12CC[C@@H]3c4ccc(B(O)O)cc4CC[C@H]3[C@@H]1[C@H](CCC(=O)Nc1ccc3c(c1)OCO3)CC2=O ?
49

Fill in: inhibition at 0.1 µM of Cc1cccc2c(CCNC(=O)CC[C@@H]3CC(=O)[C@@]4(C)CC[C@@H]5c6ccc(B(O)O)cc6CC[C@H]5[C@H]34)c[nH]c12 is ___
50

----------
experimental-target: recombinant human 17β-HSD1 (Homo sapiens)
Construct: made in house; host or cells: Sf9 insect cells (baculovirus, Bac to Bac Expression System)
test: Recombinant 17β-HSD1 assay (HPLC, 3H-estrone conversion)
Type: biochemical
run-parameters: 0.5 h; 1 μm compound; 30 nM estrone, 1 mM NADPH, 30 min RT; read-out: Inhibition of rec. 17β-HSD1
measured-quantity: inhibition at 1 µM (%)
Only the number, expressed in %, is required.

# input compound: COc1ccc(CCN(C)C(=O)CC[C@@H]2CC(F)(F)[C@@]3(C)CC[C@@H]4c5ccc(B(O)O)cc5CC[C@H]4[C@H]23)cc1OC ; wanted: its inhibition at 1 µM
77

Which inhibition at 1 µM is listed for C[C@]12CC[C@@H]3c4ccc(B(O)O)cc4CC[C@H]3[C@@H]1[C@H](CCC(=O)NCc1ccc3c(c1)OCO3)CC2(F)F ?
71

Item under review: CN(Cc1ccccc1)C(=O)CCC[C@H]1CC(=O)[C@@]2(C)CC[C@@H]3c4ccc(B(O)O)cc4CC[C@H]3[C@H]12 . Reported inhibition at 1 µM?
60

What inhibition at 1 µM value was documented for this compound, Cc1cnc(NC(=O)CCC[C@H]2CC(=O)[C@@]3(C)CC[C@@H]4c5ccc(B(O)O)cc5CC[C@H]4[C@H]23)s1 ?
59

Looking for the measured inhibition at 1 µM of C[C@]12CC[C@@H]3c4ccc(B(O)O)cc4CC[C@H]3[C@@H]1[C@@H](CCCC(=O)NC1CCCCC1)CC2(F)F , can you help?
50

Sample CN(Cc1ccccc1)C(=O)CC[C@@H]1CC(=O)[C@@]2(C)CC[C@@H]3c4ccc(B(O)O)cc4CC[C@H]3[C@H]12 — what was its inhibition at 1 µM?
49

Data request, read-out inhibition at 1 µM, for CCN(CC)C(=O)CC[C@@H]1CC(=O)[C@@]2(C)CC[C@@H]3c4ccc(B(O)O)cc4CC[C@H]3[C@H]12
88

Name the reported inhibition at 1 µM value associated with the compound C[C@]12CC[C@@H]3c4ccc(B(O)O)cc4CC[C@H]3[C@@H]1[C@H](CCC(=O)NCc1cccnc1)CC2(F)F
56

// returns reported inhibition at 1 µM for input CCN(CC)C(=O)CCC[C@H]1CC(F)(F)[C@@]2(C)CC[C@@H]3c4ccc(B(O)O)cc4CC[C@H]3[C@H]12
50

Given the entry C[C@]12CC[C@@H]3c4ccc(B(O)O)cc4CC[C@H]3[C@@H]1[C@@H](CCCC(=O)Nc1ccc3c(c1)OCO3)CC2=O , report its measured inhibition at 1 µM.
52

Tell me the measured inhibition at 1 µM of C[C@]12CC[C@@H]3c4ccc(B(O)O)cc4CC[C@H]3[C@@H]1[C@@H](CCCC(=O)NCc1ccccc1)CC2=O , please.
54

I'd like to know its inhibition at 1 µM. The compound in question is C[C@]12CC[C@@H]3c4ccc(B(O)O)cc4CC[C@H]3[C@@H]1[C@H](CCC(=O)NCc1ccc3c(c1)OCO3)CC2=O
65

Fill in the blank: the reported inhibition at 1 µM of C[C@]12CC[C@@H]3c4ccc(B(O)O)cc4CC[C@H]3[C@@H]1[C@H](CCC(=O)N1CCCCC1)CC2=O is ____.
56

Name the reported inhibition at 1 µM value associated with the compound COc1ccc(CCN(C)C(=O)CCC[C@H]2CC(=O)[C@@]3(C)CC[C@@H]4c5ccc(B(O)O)cc5CC[C@H]4[C@H]23)cc1OC
41

Which value of inhibition at 1 µM has been reported for C[C@]12CC[C@@H]3c4ccc(B(O)O)cc4CC[C@H]3[C@@H]1[C@@H](CCCC(=O)NCc1ccc(O)c(O)c1)CC2=O in the records?
57
